B1: library; numbered along this chain (parent)
chain: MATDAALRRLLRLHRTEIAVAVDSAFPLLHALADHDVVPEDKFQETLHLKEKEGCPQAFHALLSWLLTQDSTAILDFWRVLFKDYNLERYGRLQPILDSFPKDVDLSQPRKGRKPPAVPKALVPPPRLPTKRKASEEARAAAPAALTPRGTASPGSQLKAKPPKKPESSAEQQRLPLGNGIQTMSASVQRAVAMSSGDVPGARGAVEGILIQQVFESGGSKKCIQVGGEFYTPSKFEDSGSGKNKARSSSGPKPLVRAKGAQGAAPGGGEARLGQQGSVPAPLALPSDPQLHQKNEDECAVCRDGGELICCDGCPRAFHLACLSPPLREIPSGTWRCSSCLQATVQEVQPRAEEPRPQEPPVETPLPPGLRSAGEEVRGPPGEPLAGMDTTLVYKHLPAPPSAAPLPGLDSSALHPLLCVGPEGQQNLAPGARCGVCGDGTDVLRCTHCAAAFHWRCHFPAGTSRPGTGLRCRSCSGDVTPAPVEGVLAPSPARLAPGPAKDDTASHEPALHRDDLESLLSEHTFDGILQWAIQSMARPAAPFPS

Variants of: B1
Experimental details: AIRE transcriptional activation functional score (insulin promoter-GFP; nonsense median 0, synonymous median 1) (normalised score); higher = higher AIRE activity (more reporter activation)
Experimental conditions: with insulin promoter-GFP reporter in HEK293
Give MET when the value for AIRE transcriptional activation functional score is at least 1. Give NOT MET when it is less.

Is AIRE transcriptional activation functional score at least 1? Consider `M388V`
MET

Is AIRE transcriptional activation functional score at least 1? Consider `V345W`
MET

Is AIRE transcriptional activation functional score at least 1? Consider `F215A`
NOT MET

Is AIRE transcriptional activation functional score at least 1? Consider `P497K`
NOT MET

Is AIRE transcriptional activation functional score at least 1? Consider `E522W`
NOT MET

Is AIRE transcriptional activation functional score at least 1? Consider `P355G`
MET

Is AIRE transcriptional activation functional score at least 1? Consider `R433Y`
NOT MET

Is AIRE transcriptional activation functional score at least 1? Consider `W65I`
NOT MET

Is AIRE transcriptional activation functional score at least 1? Consider `L323P`
MET

Is AIRE transcriptional activation functional score at least 1? Consider `Q293H`
MET

Is AIRE transcriptional activation functional score at least 1? Consider `L146H`
NOT MET
